Molecular target: human OAT1 (Homo sapiens, UniProt Q4U2R8)
Sequence (Q4U2R8 whole entry): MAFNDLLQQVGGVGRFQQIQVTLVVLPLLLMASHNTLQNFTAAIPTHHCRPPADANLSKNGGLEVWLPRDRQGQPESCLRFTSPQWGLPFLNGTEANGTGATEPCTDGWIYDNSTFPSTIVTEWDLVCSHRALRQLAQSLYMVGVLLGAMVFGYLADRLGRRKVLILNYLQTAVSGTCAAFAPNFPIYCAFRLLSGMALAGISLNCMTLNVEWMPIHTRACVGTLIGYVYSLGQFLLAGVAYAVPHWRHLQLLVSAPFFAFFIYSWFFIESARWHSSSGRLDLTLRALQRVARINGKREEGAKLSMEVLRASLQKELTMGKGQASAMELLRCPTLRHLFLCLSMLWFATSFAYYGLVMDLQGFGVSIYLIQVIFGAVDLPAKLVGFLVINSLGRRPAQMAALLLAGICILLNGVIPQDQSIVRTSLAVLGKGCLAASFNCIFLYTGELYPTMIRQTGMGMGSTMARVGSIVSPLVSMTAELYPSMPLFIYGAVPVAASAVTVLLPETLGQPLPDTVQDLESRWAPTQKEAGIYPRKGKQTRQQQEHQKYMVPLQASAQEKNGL
Test: Cellular transport assay, HEK-293 cells expressing human OAT1
Conditions: human renal basolateral uptake OAT1; 5 min incubation, concentrations in Table 1
As shown below, each of these molecules has a reported K m value.
Value type: K m (µM)

                                   molecule  value_type  readout_number
0  O=C(/C=C/c1ccc(O)c(O)c1)O[C@H](Cc1ccc(O)c(O)c1)C(=O)O         K m            70.8
1  O=C(O)Cc1c(/C=C/C(=O)O[C@H](Cc2ccc(O)c(O)c2)C(=O)O)ccc(O)c1O         K m            18.1
2                      O=C(O)c1ccc(O)c(O)c1         K m            37.6
3  O=C(O)C(O)Cc1ccc(O)c(O)c1 (stereo not shown)         K m            98.9
